Give IC50 for every item shown.
Use nM as the unit, but write only the number.

input: Report IC50 for `CCN(C)C(=O)Oc1cccc(NC(=O)c2cc(=O)c3ccccc3o2)c1` tested on Cholinesterase (Homo sapiens, UniProt P06276).
Sequence (P06276 whole entry): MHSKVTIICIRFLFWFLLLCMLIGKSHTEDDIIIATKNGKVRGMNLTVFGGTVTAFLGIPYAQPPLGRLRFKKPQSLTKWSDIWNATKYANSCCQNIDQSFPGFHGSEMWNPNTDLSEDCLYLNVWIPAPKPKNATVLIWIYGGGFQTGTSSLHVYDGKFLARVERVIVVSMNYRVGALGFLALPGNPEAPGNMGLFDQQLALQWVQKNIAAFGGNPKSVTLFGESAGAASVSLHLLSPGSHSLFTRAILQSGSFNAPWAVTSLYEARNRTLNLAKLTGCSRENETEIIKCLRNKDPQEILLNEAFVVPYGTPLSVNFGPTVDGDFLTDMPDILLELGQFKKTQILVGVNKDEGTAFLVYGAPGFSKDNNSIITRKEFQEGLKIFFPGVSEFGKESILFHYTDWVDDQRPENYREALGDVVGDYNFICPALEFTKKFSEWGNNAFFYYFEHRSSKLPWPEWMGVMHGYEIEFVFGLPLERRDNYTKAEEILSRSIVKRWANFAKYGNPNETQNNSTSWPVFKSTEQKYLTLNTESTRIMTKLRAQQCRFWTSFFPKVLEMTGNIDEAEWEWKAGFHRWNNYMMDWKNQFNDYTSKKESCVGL
output: 507

input: Report IC50 for `CCN(C)C(=O)Oc1cccc(CCNC(=O)c2cc(O)c(O)c(O)c2)c1` tested on Cholinesterase (Homo sapiens, UniProt P06276).
output: 452

input: Report IC50 for CCN(C)C(=O)Oc1cccc(CCNC(=O)CCCCC2CCSS2)c1 (configuration not stated) tested on Cholinesterase (Homo sapiens, UniProt P06276).
output: 340

input: Report IC50 for `CCN(C)C(=O)Oc1cccc(CCNC(=O)c2cc(=O)c3ccccc3o2)c1` tested on Cholinesterase (Homo sapiens, UniProt P06276).
output: 511

input: Report IC50 for CCN(C)C(=O)Oc1cccc(NC(=O)CCCCC2CCSS2)c1 (configuration not stated) tested on Cholinesterase (Homo sapiens, UniProt P06276).
output: 356

input: Report IC50 for `CCN(C)C(=O)Oc1cccc(CNC(=O)c2cc(=O)c3ccccc3o2)c1` tested on Cholinesterase (Homo sapiens, UniProt P06276).
output: 650

input: Report IC50 for CCN(C)C(=O)Oc1cccc(CNC(=O)CCCCC2CCSS2)c1 (configuration not stated) tested on Cholinesterase (Homo sapiens, UniProt P06276).
output: 378
